Data origin: patent US20170081400A1

Attribute: TL1A Binding Level (Early)
- SYSTEM: T1, human TL1A extracellular domain with N-terminal HIS and FLAG tag (human, UniProt O95150 72-251)
- T1 construct: the whole entry is named
- T1 sequence: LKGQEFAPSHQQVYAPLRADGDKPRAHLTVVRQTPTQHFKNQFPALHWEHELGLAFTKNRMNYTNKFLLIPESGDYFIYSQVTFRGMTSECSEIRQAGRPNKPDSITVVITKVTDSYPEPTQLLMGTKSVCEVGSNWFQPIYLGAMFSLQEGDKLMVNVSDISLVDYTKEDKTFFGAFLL
- METHOD SUMMARY: SPR Run 5, Ab from supernatant captured on Protein A, TL1A 5 ug/mL, timepoint 44
Lab book: enter the figure in RU, no units written.

Query: # return recorded TL1A Binding Level (Early) for entry 320-382 (antibody, human IgG1, name in Kabat numbering, V domains shown, human IgG1, lambda) VH: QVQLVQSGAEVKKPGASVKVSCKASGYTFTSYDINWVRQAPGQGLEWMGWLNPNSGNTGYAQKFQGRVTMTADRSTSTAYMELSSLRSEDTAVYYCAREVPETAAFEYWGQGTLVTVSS VL: QSVLTQPPSVSGAPGQRVTISCTSSSSDIGAGLGVHWYQQLPGTAPKLLIEGYYNRPSGVPDRFSGSKSGTSASLTITGLLPEDEGDYYCQSYDGTLSAQFGGGTKLTVLG
Reply: 0

Query: Identify measured TL1A Binding Level (Early) corresponding to 320-384 (antibody, human IgG1, name in Kabat numbering, V domains shown, human IgG1, lambda) VH: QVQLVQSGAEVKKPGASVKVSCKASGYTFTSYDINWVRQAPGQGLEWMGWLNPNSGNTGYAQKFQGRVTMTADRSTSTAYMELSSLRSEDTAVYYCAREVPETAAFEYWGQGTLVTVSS VL: QSVLTQPPSVSGAPGQRVTISCTSSSSDIGAGLGVHWYQQLPGTAPKLLIEGYYNRPSGVPDRFSGSKSGTSASLTITGLLPEDEGDYYCQSYDGTLSAHFGGGTKLTVLG
Reply: 3

Query: Dear colleague, please send me the reported TL1A Binding Level (Early) for 320-398 (antibody, human IgG1, name in Kabat numbering, V domains shown, human IgG1, lambda) VH: QVQLVQSGAEVKKPGASVKVSCKASGSTFTSYDINWVRQAPGQGLEWMGWLNPNSGNTGYAQKFQGRVTMTADRSTSTAYMELSSLRSEDTAVYYCAREVPETAAFEYWGQGTLVTVSS VL: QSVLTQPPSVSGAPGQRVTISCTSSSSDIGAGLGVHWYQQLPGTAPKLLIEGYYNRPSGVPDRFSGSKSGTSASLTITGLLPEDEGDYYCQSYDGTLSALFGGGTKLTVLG when you can.
Reply: 12
